Assay: Metabolic stability: incubation with liver microsomes and NADPH-generating system, LC-MS analysis
Type: in vitro ADME
Settings: compound 5 μM; microsomes 1 mg/ml; NADPH-generating system; 60 minutes at 37 degrees Celsius
measured property: % metabolised compound after 60 minutes (%)
Write the answer as a number in %, unit excluded.

Worked cases, answers included:
O=C(NC[C@@H]1CCN(CCCc2cc(O)no2)C[C@H]1O)c1cc(F)cc2c1OCCO2 ... 8
Cc1cc2c(c(C(=O)NC[C@@H]3CCN(CCCCc4nnn[nH]4)C[C@H]3O)c1)OCCCO2 ... 2
Cc1cc2c(c(C(=O)NC[C@@H]3CCN(CCCc4cc(O)no4)C[C@H]3O)c1)OCCO2 ... 0
Cc1cc2c(c(C(=O)NCC3CCN(CCCN4CC(=O)NC4=O)CC3O)c1)OCCCO2 (centres unmarked) ... 16
O=C(NC[C@@H]1CCN(CCCc2cc(O)no2)C[C@H]1O)c1cc(F)cc2c1OCCCO2 ... 10
Cc1cc2c(c(C(=O)NC[C@@H]3CCN(CCc4nnn[nH]4)C[C@H]3O)c1)OCCCO2 ... 1
Cc1ccc(C(=O)NC[C@@H]2CCN(CCCc3nnn[nH]3)C[C@H]2O)c2c1OCCCO2 ... 3

// query What does the data say about its % metabolised compound after 60 minutes? Entry: O=C(NC[C@@H]1CCN(CCCCc2nnn[nH]2)C[C@H]1O)c1cc(Cl)cc2c1OCCCO2
// result 2.5

====

Assay: Metabolic stability: incubation with liver microsomes and NADPH-generating system, LC-MS analysis
Type: in vitro ADME
Conditions: compound 5 μM; microsomes 1 mg/ml; NADPH-generating system; 60 minutes at 37 degrees Celsius
Recorded % metabolised compound after 60 minutes values for a group of compounds are listed next.
Answer with a number only, understood to be in %.

O=C(NC[C@@H]1CCN(CCCc2cc(O)no2)C[C@H]1O)c1cc(Cl)cc2c1OCCCO2 [Compound 27] ... 12
Cc1ccc(C(=O)NC[C@@H]2CCN(CCCCc3nnn[nH]3)C[C@H]2O)c2c1OCCCO2 [Compound 10] ... 2
Cc1cc2c(c(C(=O)NC[C@@H]3CCN(CCCc4cc(O)no4)C[C@H]3O)c1)OCCCO2 [Compound 23] ... 6
Cc1cc2c(c(C(=O)NC[C@@H]3CCN(CCCN4C(=O)CNC4=O)C[C@H]3O)c1)OCCCO2 [Compound 31] ... 12

Note: attention shifts to another entry.
// query May I ask what % metabolised compound after 60 minutes has been recorded for O=C(NCC1CCN(CCCCn2ccc(O)n2)CC1O)c1cc(Cl)cc2c1OCCCO2 (centres unmarked) [Compound 11] ?
// result 39

====

Test: Metabolic stability: incubation with liver microsomes and NADPH-generating system, LC-MS analysis
Assay type: in vitro ADME
Details: compound 5 μM; microsomes 1 mg/ml; NADPH-generating system; 60 minutes at 37 degrees Celsius
// values below are reported % metabolised compound after 60 minutes
Note: unit % is implicit; provide only the numeric part.

COC1CN(CCCc2cc(O)no2)CCC1CNC(=O)c1cc(C)cc2c1OCCCO2 (centres unmarked) [Compound 45] ... 6

// query Reported % metabolised compound after 60 minutes, compound COc1ccc(C(=O)NCC2CCN(CCCCn3ccc(O)n3)CC2OC)c2c1OCCO2 (centres unmarked) [Compound 4] : ____
// result 11

// query # query: % metabolised compound after 60 minutes of entry O=C(NC[C@@H]1CCN(CCCc2cc(O)no2)C[C@H]1O)c1cccc2c1OCCCO2 [Compound 37]
// result 1

// query Item under review: COc1ccc(C(=O)NC[C@@H]2CCN(CCCc3cc(O)no3)C[C@H]2O)c2c1OCCO2 [Compound 5] . Reported % metabolised compound after 60 minutes?
// result 4

// query Which % metabolised compound after 60 minutes reading was recorded for the compound COc1ccc(C(=O)NC[C@@H]2CCN(CCCCn3ccc(O)n3)C[C@H]2O)c2c1OCCO2 [Compound 1] ?
// result 5

// query Entry Cc1cc2c(c(C(=O)NC[C@@H]3CCN(CCCCn4ccc(O)n4)C[C@H]3O)c1)OCCCO2 [Compound 15] : reported % metabolised compound after 60 minutes = ?
// result 26

// query Would you mind telling me what % metabolised compound after 60 minutes value was observed for O=C(NC[C@@H]1CCN(CCCn2nn[nH]c2=O)C[C@H]1O)c1cc(Cl)cc2c1OCCCO2 [Compound 16] ?
// result 0.5

// query Which % metabolised compound after 60 minutes value is on record for Cc1ccc(C(=O)NC[C@@H]2CCN(CCc3nnn[nH]3)C[C@H]2O)c2c1OCCCO2 [Compound 22] ?
// result 4.5

====

Target: h5-HT4b (Homo sapiens, UniProt Q13639)
Construct: expressed in transfected cells; host or cells: HEK 293 (clone 9), membrane preparation
Sequence (Q13639 whole entry): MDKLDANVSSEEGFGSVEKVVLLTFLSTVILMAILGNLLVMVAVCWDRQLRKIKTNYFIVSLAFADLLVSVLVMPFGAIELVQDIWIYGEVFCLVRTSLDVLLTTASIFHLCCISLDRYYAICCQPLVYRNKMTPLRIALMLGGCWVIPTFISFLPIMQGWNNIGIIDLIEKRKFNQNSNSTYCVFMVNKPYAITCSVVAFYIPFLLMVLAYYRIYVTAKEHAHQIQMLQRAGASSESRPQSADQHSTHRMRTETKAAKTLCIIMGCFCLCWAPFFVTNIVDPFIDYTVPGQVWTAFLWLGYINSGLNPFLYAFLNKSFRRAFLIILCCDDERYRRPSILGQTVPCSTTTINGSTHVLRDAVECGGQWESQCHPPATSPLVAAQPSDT
Test: 5HT4 antagonism: [3H]GR113808 binding to membranes of h5-HT4b-HEK 293 clone 9 cells
Details: displacement of [3H]GR113808 0.1 nM; h5-HT4b-HEK 293 membranes; 30 min at 25° C.; read-out: pIC50 (5HT4 antagonistic data) (converted)
Documented IC50 across a set of compounds
Number in nM, nothing else.

COc1ccc(C(=O)NC[C@@H]2CCN(CCCc3cc(O)no3)C[C@H]2O)c2c1OCCCO2 [Compound 35] ... 83.2
Cc1cc2c(c(C(=O)NC[C@@H]3CCN(CCCCN4CCOCC4)C[C@H]3O)c1)OCCCO2 [Compound 38] ... 1.05
Cc1cc2c(c(C(=O)NC[C@@H]3CCN(CCCN4C(=O)CNC4=O)C[C@H]3O)c1)OCCCO2 [Compound 31] ... 1.48

// query Return reported IC50; argument: O=C(NCC1CCN(CCCc2nnn[nH]2)CC1O)c1cc(Cl)cc2c1OCCCO2 (centres unmarked) [Compound 7]
// result 31.6

// query IC50 for N#Cc1cc2c(c(C(=O)NC[C@@H]3CCN(CCCCn4ccc(O)n4)C[C@H]3O)c1)OCCCO2 [Compound 34] ?
// result 3.89

// query Give the measured IC50 of COc1ccc(C(=O)NCC2CCN(CCCCn3ccc(O)n3)CC2OC)c2c1OCCO2 (centres unmarked) [Compound 4] .
// result 11.5

// query // returns reported IC50 for input Cc1ccc(C(=O)NC[C@@H]2CCN(CCCc3cc(O)no3)C[C@H]2O)c2c1OCCCO2 [Compound 26]
// result 16.6

// query Entry under review: COc1ccc(C(=O)NC[C@@H]2CCN(CCCc3cc(O)no3)C[C@H]2O)c2c1OCCO2 [Compound 5] . Reported IC50?
// result 123

====

# melting point listing for each entry below
Structures can show the parent of a compound that is named as a salt.
Answer in °C, number only, no unit symbol.

O=C(NCC1CCN(CCCc2nnn[nH]2)CC1O)c1cc(Cl)cc2c1OCCCO2 (stereo not shown) (as salt: HCl) ... 212

Now let's try a different one.
// query For the compound shown here, Cc1cc2c(c(C(=O)NCC3CCN(CCCN4CC(=O)NC4=O)CC3O)c1)OCCCO2 (stereo not shown) (hydrate or solvate) , give the reported melting point.
// result 135

====

Assay: Metabolic stability: incubation with liver microsomes and NADPH-generating system, LC-MS analysis
Assay type: in vitro ADME
Conditions: compound 5 μM; microsomes 1 mg/ml; NADPH-generating system; 60 minutes at 37 degrees Celsius
# % metabolised compound after 60 minutes per entry

// below: answered molecules
N#Cc1cc2c(c(C(=O)NC[C@@H]3CCN(CCCCn4ccc(O)n4)C[C@H]3O)c1)OCCCO2 [Compound 34] ... 11%
O=C(NCC1CCN(CCCCn2ccc(O)n2)CC1O)c1cc(Cl)c(Cl)c2c1OCCCO2 (centres unmarked) [Compound 29] ... 50%
Cc1cc2c(c(C(=O)NC[C@@H]3CCN(CCCCN4CCOCC4)C[C@H]3O)c1)OCCCO2 [Compound 38] ... 18%
O=C(NCC1CCN(CCCCn2ccc(O)n2)CC1O)c1cc(Cl)c(Br)c2c1OCCCO2 (centres unmarked) [Compound 28] ... 53%
O=C1CN(CCCN2CC[C@@H](CNC(=O)c3cc(Cl)cc4c3OCCCO4)[C@H](O)C2)C(=O)N1 (relative stereo) [Compound 21] ... 30.5%

// query Entry O=C(NCC1CCN(CCCc2nnn[nH]2)CC1O)c1cc(Cl)cc2c1OCCCO2 (centres unmarked) [Compound 7] has what % metabolised compound after 60 minutes?
// result 5%

// query Entry O=C(NC[C@@H]1CCN(CCc2nnn[nH]2)C[C@H]1O)c1cc(Cl)cc2c1OCCCO2 [Compound 20] : reported % metabolised compound after 60 minutes = ?
// result 0%

// query Look up % metabolised compound after 60 minutes for this molecule: COc1ccc(C(=O)NC[C@@H]2CCN(CCCCN3CCOCC3)C[C@H]2O)c2c1OCCCO2 [Compound 42]
// result 0%

====

Target: h5-HT4b (Homo sapiens, UniProt Q13639)
Construct: expressed in transfected cells; host or cells: HEK 293 (clone 9), membrane preparation
Test: 5HT4 antagonism: [3H]GR113808 binding to membranes of h5-HT4b-HEK 293 clone 9 cells
Details: displacement of [3H]GR113808 0.1 nM; h5-HT4b-HEK 293 membranes; 30 min at 25° C.; read-out: pIC50 (5HT4 antagonistic data) (converted)
measured property: IC50 (µM)
Write it as a number; the unit µM goes unstated.

// query Notebook entry, h5-HT4b (Homo sapiens, UniProt Q13639) assay: IC50 of O=C1CN(CCCN2CC[C@@H](CNC(=O)c3cc(Cl)cc4c3OCCCO4)[C@H](O)C2)C(=O)N1 (relative stereo) = ?
// result 0.00646

// query Please provide the recorded IC50 for Cc1ccc(C(=O)NC[C@@H]2CCN(CCc3nnn[nH]3)C[C@H]2O)c2c1OCCCO2 , tested on h5-HT4b (Homo sapiens, UniProt Q13639).
// result 0.00955

// query Can you look up IC50 on h5-HT4b (Homo sapiens, UniProt Q13639) for COC1CN(CCCc2cc(O)no2)CCC1CNC(=O)c1cc(C)cc2c1OCCCO2 (stereo not drawn) ?
// result 0.132

// query Request body: readout IC50, system h5-HT4b (Homo sapiens, UniProt Q13639), query O=C(NC[C@@H]1CCN(CCc2nnn[nH]2)C[C@H]1O)c1cc(Cl)cc2c1OCCCO2 . Return the value.
// result 0.0646

// query What value of IC50 on h5-HT4b (Homo sapiens, UniProt Q13639) does Cc1cc2c(c(C(=O)NC[C@@H]3CCN(CCCc4cc(O)no4)C[C@H]3O)c1)OCCCO2 have?
// result 0.0166

// query For h5-HT4b (Homo sapiens, UniProt Q13639), provide IC50 of Cc1cc2c(c(C(=O)NC[C@@H]3CCN(CCCCn4ccc(O)n4)C[C@H]3O)c1)OCCCO2 please.
// result 0.00191
